Numbers sourced from ChEMBL document CHEMBL6120935.

- protocol: n-Octanol/PBS partition coefficient, logP of compound at pH 7.4 incubated for 4 hrs under shaking condition by UV spectrophotometric analysis
- Type: physicochemical
Form field: logD at 4 h (one value per entry).
Just the number.

// query logD at 4 h value for entry "O=C(CCCCCCCCC[P+](c1ccccc1)(c1ccccc1)c1ccccc1)NCCCNc1ccc([N+](=O)[O-])c(C(F)(F)F)c1"
3.24

Note, next up: "O=C(CCCCC[P+](c1ccccc1)(c1ccccc1)c1ccccc1)NCCCNc1ccc([N+](=O)[O-])c(C(F)(F)F)c1"
2.39

Note, next up: "O=C(CCCCCCCC[P+](c1ccccc1)(c1ccccc1)c1ccccc1)NCCCNc1ccc([N+](=O)[O-])c(C(F)(F)F)c1"
2.78

Note, next up: "CC(=O)NCCCNc1ccc([N+](=O)[O-])c(C(F)(F)F)c1"
2.03

Note, next up: "O=C(CC[P+](c1ccccc1)(c1ccccc1)c1ccccc1)NCCCNc1ccc([N+](=O)[O-])c(C(F)(F)F)c1"
1.99
